# measured.on: 5-hydroxytryptamine receptor 4 (Homo sapiens)
# assay.explanation: Displacement of [3H]-GR 113808 from recombinant human brain 5HT4 receptor at 10^-8 M measured after 60 mins by radio ligand binding assay relative to control

chemical.string: COc1cc(/C=C/C(=O)NCCN2CCC(CCC(=O)c3cc(Cl)c(N)cc3OC)CC2)ccc1O
inhibition / %: 39
--
chemical.string: COc1cc(CN2CCC(CCC(=O)c3cc(Cl)c(N)cc3OC)CC2)ccc1OCc1ccccc1
inhibition / %: 0
--
chemical.string: COc1ccc(CN2CCC(CCC(=O)c3cc(Cl)c(N)cc3OC)CC2)cc1OCc1ccccc1
inhibition / %: 7
--
chemical.string: COc1cc(CN2CCC(CCC(=O)c3cc(Cl)c(N)cc3OC)CC2)ccc1O
inhibition / %: 7
--
chemical.string: COc1cc(N)c(Cl)cc1C(=O)CCC1CCN(CCNC(=O)CCCC[C@@H]2CCSS2)CC1
inhibition / %: 26
--
chemical.string: COc1cc(N)c(Cl)cc1C(=O)CCC1CCN(Cc2ccc(OCc3ccccc3)c(OCc3ccccc3)c2)CC1
inhibition / %: 3
--
chemical.string: COc1cc(N)c(Cl)cc1C(=O)CCC1CCN(Cc2ccc(O)c(O)c2)CC1
inhibition / %: 76
--
chemical.string: NCCc1c[nH]c2ccc(O)cc12
inhibition / %: 0
--
chemical.string: COc1cc(N)c(Cl)cc1C(=O)CCC1CCN(Cc2ccc3c(c2)OCO3)CC1
inhibition / %: 22
--
chemical.string: COc1ccc(CN2CCC(CCC(=O)c3cc(Cl)c(N)cc3OC)CC2)cc1O
inhibition / %: 64

###

# measured.on: 5-hydroxytryptamine receptor 4 (Homo sapiens)
# assay.explanation: Displacement of [3H]-GR 113808 from recombinant human brain 5HT4 receptor measured after 60 mins by radio ligand binding assay
endpoint.name: IC50 (µM)

chemical.string: COc1ccc(CN2CCC(CCC(=O)c3cc(Cl)c(N)cc3OC)CC2)cc1O
measured.on: 5-hydroxytryptamine receptor 4 (Homo sapiens)
endpoint.name: IC50
endpoint.result: 0.0145

chemical.string: COc1cc(/C=C/C(=O)NCCN2CCC(CCC(=O)c3cc(Cl)c(N)cc3OC)CC2)ccc1O
measured.on: 5-hydroxytryptamine receptor 4 (Homo sapiens)
endpoint.name: IC50
endpoint.result: 0.101

chemical.string: COc1cc(N)c(Cl)cc1C(=O)CCC1CCN(Cc2ccc(O)c(O)c2)CC1
measured.on: 5-hydroxytryptamine receptor 4 (Homo sapiens)
endpoint.name: IC50
endpoint.result: 0.0075

###

# assay.explanation: Antioxidant activity assessed as DPPH radical scavenging activity measured after 120 mins
# Format: functional
pEC50: −log10 of the molar value.
# pEC50 >= 4 gives criterion met, anything below gives criterion not met

molecule: COc1cc(N)c(Cl)cc1C(=O)CCC1CCN(Cc2ccc(O)c(O)c2)CC1
answer.label: criterion met
//
molecule: COc1cc(N)c(Cl)cc1C(=O)CCC1CCN(CCNC(=O)CCCC[C@@H]2CCSS2)CC1
answer.label: criterion not met
//
molecule: Cc1c(C)c2c(c(C)c1O)CCC(C)(C(=O)O)O2 (stereo unspecified) [TROLOX]
answer.label: criterion met
//
molecule: COc1cc(/C=C/C(=O)NCCN2CCC(CCC(=O)c3cc(Cl)c(N)cc3OC)CC2)ccc1O
answer.label: criterion met
//
molecule: COc1cc(CN2CCC(CCC(=O)c3cc(Cl)c(N)cc3OC)CC2)ccc1O
answer.label: criterion not met
//
molecule: COc1ccc(CN2CCC(CCC(=O)c3cc(Cl)c(N)cc3OC)CC2)cc1OCc1ccccc1
answer.label: criterion not met
//
molecule: O=c1c(O)c(-c2ccc(O)c(O)c2)oc2cc(O)cc(O)c12 [QUERCETIN]
answer.label: criterion met
//
molecule: COc1cc(CN2CCC(CCC(=O)c3cc(Cl)c(N)cc3OC)CC2)ccc1OCc1ccccc1
answer.label: criterion not met
//
molecule: COc1cc(N)c(Cl)cc1C(=O)CCC1CCN(Cc2ccc(OCc3ccccc3)c(OCc3ccccc3)c2)CC1
answer.label: criterion not met
//
molecule: COc1cc(N)c(Cl)cc1C(=O)CCC1CCN(Cc2ccc3c(c2)OCO3)CC1
answer.label: criterion not met

###

# assay.explanation: Antioxidant activity assessed as […] radical scavenging activity preincubated for 30 mins followed by AAPH addition and measured every minute for 2 hrs by ORAC fluorescein assay relative to trolox
# Assay type: functional
endpoint.name: fold change (FC)

molecule: COc1cc(N)c(Cl)cc1C(=O)CCC1CCN(Cc2ccc(OCc3ccccc3)c(OCc3ccccc3)c2)CC1
endpoint.result: < 0.2

molecule: COc1cc(/C=C/C(=O)NCCN2CCC(CCC(=O)c3cc(Cl)c(N)cc3OC)CC2)ccc1O
endpoint.result: 1.47

molecule: COc1ccc(CN2CCC(CCC(=O)c3cc(Cl)c(N)cc3OC)CC2)cc1O
endpoint.result: 3.41

molecule: COc1cc(N)c(Cl)cc1C(=O)CCC1CCN(Cc2ccc3c(c2)OCO3)CC1
endpoint.result: < 0.2

molecule: COc1cc(CN2CCC(CCC(=O)c3cc(Cl)c(N)cc3OC)CC2)ccc1OCc1ccccc1
endpoint.result: < 0.2

molecule: COc1ccc(CN2CCC(CCC(=O)c3cc(Cl)c(N)cc3OC)CC2)cc1OCc1ccccc1
endpoint.result: < 0.2

molecule: O=c1c(O)c(-c2ccc(O)c(O)c2)oc2cc(O)cc(O)c12 [QUERCETIN]
endpoint.result: 6.5

molecule: COc1cc(CN2CCC(CCC(=O)c3cc(Cl)c(N)cc3OC)CC2)ccc1O
endpoint.result: 3.88

molecule: COc1cc(N)c(Cl)cc1C(=O)CCC1CCN(CCNC(=O)CCCC[C@@H]2CCSS2)CC1
endpoint.result: 0.76

molecule: COc1cc(N)c(Cl)cc1C(=O)CCC1CCN(Cc2ccc(O)c(O)c2)CC1
endpoint.result: 3.4

###

# Test system: SH-SY5Y
# assay.explanation: Cytotoxicity against human SH-SY5Y cells assessed as reduction in cell viability at 50 uM measured after 24 hrs by MTT assay relative to control
# Format: cell-based

chemical.string: COc1cc(/C=C/C(=O)NCCN2CCC(CCC(=O)c3cc(Cl)c(N)cc3OC)CC2)ccc1O
Activity: 68%
//
chemical.string: COc1ccc(CN2CCC(CCC(=O)c3cc(Cl)c(N)cc3OC)CC2)cc1O
Activity: 40%
//
chemical.string: COc1cc(N)c(Cl)cc1C(=O)CCC1CCN(CCNC(=O)CCCC[C@@H]2CCSS2)CC1
Activity: 48%
//
chemical.string: COc1cc(N)c(Cl)cc1C(=O)CCC1CCN(Cc2ccc(O)c(O)c2)CC1
Activity: 37%

###

# reported EC50; entries follow
# measured.on: 5-hydroxytryptamine receptor 4 (Homo sapiens, UniProt Q13639)
# Sequence (Q13639 whole entry): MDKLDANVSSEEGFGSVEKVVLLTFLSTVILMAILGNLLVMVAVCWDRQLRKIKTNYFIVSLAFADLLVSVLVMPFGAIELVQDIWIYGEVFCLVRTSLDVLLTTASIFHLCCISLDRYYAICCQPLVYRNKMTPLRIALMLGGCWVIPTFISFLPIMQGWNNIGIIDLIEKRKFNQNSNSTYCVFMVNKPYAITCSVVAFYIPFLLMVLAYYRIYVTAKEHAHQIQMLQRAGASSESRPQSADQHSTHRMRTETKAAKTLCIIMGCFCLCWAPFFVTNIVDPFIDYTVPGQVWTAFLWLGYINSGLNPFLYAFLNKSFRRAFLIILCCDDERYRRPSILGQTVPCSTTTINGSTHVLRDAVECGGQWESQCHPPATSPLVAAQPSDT
# assay.explanation: Partial agonist activity at human HA-tagged 5HT4 receptor expressed in COS7 cells assessed as induction of cAMP production measured after 10 mins by HTRF assay

chemical.string: COc1ccc(CN2CCC(CCC(=O)c3cc(Cl)c(N)cc3OC)CC2)cc1O
measured.on: 5-hydroxytryptamine receptor 4 (Homo sapiens, UniProt Q13639)
EC50 [nM]: 1.4

chemical.string: COc1cc(/C=C/C(=O)NCCN2CCC(CCC(=O)c3cc(Cl)c(N)cc3OC)CC2)ccc1O
measured.on: 5-hydroxytryptamine receptor 4 (Homo sapiens, UniProt Q13639)
EC50 [nM]: 4.5

chemical.string: COc1cc(N)c(Cl)cc1C(=O)CCC1CCN(Cc2ccc(O)c(O)c2)CC1
measured.on: 5-hydroxytryptamine receptor 4 (Homo sapiens, UniProt Q13639)
EC50 [nM]: 2.8

###

# measured.on: Acetylcholinesterase (Homo sapiens, UniProt P22303)
# Sequence (P22303 whole entry): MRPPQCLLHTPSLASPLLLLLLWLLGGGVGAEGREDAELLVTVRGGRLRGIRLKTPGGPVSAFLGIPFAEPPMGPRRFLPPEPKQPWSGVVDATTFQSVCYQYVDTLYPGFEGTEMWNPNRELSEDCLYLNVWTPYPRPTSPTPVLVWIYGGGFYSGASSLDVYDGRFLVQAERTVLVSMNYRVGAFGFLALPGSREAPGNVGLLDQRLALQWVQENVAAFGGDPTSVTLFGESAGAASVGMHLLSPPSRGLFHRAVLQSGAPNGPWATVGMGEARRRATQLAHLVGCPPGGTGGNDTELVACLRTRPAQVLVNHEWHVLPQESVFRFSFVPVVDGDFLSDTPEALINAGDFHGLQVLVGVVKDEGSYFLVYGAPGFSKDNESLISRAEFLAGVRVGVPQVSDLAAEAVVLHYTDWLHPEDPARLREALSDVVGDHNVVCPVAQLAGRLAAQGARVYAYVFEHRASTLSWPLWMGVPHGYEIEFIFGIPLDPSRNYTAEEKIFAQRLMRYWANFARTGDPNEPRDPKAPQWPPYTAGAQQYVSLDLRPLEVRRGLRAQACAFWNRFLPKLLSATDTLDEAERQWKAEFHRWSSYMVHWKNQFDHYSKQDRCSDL

chemical.string: COc1cc(CN2CCC(CCC(=O)c3cc(Cl)c(N)cc3OC)CC2)ccc1O
IC50: 535 nM
//
chemical.string: COc1cc(N)c(Cl)cc1C(=O)CCC1CCN(Cc2ccc(O)c(O)c2)CC1
IC50: 138 nM

###

# measured.on: 5-hydroxytryptamine receptor 4 (Homo sapiens, UniProt Q13639)
# assay.explanation: Displacement of [3H]-GR 113808 from recombinant human brain 5HT4 receptor at 10^-6 M measured after 60 mins by radio ligand binding assay relative to control

chemical.string: COc1cc(N)c(Cl)cc1C(=O)CCC1CCN(Cc2ccc(O)c(O)c2)CC1
measured.on: 5-hydroxytryptamine receptor 4 (Homo sapiens, UniProt Q13639)
inhibition, %: 100
--
chemical.string: COc1ccc(CN2CCC(CCC(=O)c3cc(Cl)c(N)cc3OC)CC2)cc1O
measured.on: 5-hydroxytryptamine receptor 4 (Homo sapiens, UniProt Q13639)
inhibition, %: 100
--
chemical.string: COc1cc(/C=C/C(=O)NCCN2CCC(CCC(=O)c3cc(Cl)c(N)cc3OC)CC2)ccc1O
measured.on: 5-hydroxytryptamine receptor 4 (Homo sapiens, UniProt Q13639)
inhibition, %: 100
--
chemical.string: NCCc1c[nH]c2ccc(O)cc12
measured.on: 5-hydroxytryptamine receptor 4 (Homo sapiens, UniProt Q13639)
inhibition, %: 65
--
chemical.string: COc1cc(CN2CCC(CCC(=O)c3cc(Cl)c(N)cc3OC)CC2)ccc1O
measured.on: 5-hydroxytryptamine receptor 4 (Homo sapiens, UniProt Q13639)
inhibition, %: 95
--
chemical.string: COc1ccc(CN2CCC(CCC(=O)c3cc(Cl)c(N)cc3OC)CC2)cc1OCc1ccccc1
measured.on: 5-hydroxytryptamine receptor 4 (Homo sapiens, UniProt Q13639)
inhibition, %: 88
--
chemical.string: COc1cc(N)c(Cl)cc1C(=O)CCC1CCN(Cc2ccc(OCc3ccccc3)c(OCc3ccccc3)c2)CC1
measured.on: 5-hydroxytryptamine receptor 4 (Homo sapiens, UniProt Q13639)
inhibition, %: 89
--
chemical.string: COc1cc(CN2CCC(CCC(=O)c3cc(Cl)c(N)cc3OC)CC2)ccc1OCc1ccccc1
measured.on: 5-hydroxytryptamine receptor 4 (Homo sapiens, UniProt Q13639)
inhibition, %: 97
--
chemical.string: COc1cc(N)c(Cl)cc1C(=O)CCC1CCN(Cc2ccc3c(c2)OCO3)CC1
measured.on: 5-hydroxytryptamine receptor 4 (Homo sapiens, UniProt Q13639)
inhibition, %: 100
--
chemical.string: COc1cc(N)c(Cl)cc1C(=O)CCC1CCN(CCNC(=O)CCCC[C@@H]2CCSS2)CC1
measured.on: 5-hydroxytryptamine receptor 4 (Homo sapiens, UniProt Q13639)
inhibition, %: 99
